Settings: in ethyl acetate, 270.15 K
Measured parameter: solubility (mole fraction)
# print the numeric value only

Query: Tell me its solubility (mole fraction) given COC1=C(OC)C(=O)C(C/C=C(\C)CC/C=C(\C)CC/C=C(\C)CC/C=C(\C)CC/C=C(\C)CC/C=C(\C)CC/C=C(\C)CC/C=C(\C)CC/C=C(\C)CCC=C(C)C)=C(C)C1=O as the entry.
Reply: 0.0006

====

Settings: in ethyl acetate, 300.15 K
Measured parameter: solubility (mole fraction)
I only need the number, thanks.

Query: Fill in reported solubility (mole fraction) for this entry: COC1=C(OC)C(=O)C(C/C=C(\C)CC/C=C(\C)CC/C=C(\C)CC/C=C(\C)CC/C=C(\C)CC/C=C(\C)CC/C=C(\C)CC/C=C(\C)CC/C=C(\C)CCC=C(C)C)=C(C)C1=O
Reply: 0.09

Data provenance: BigSolDB 2.1
